Each entry below carries its reported inhibition at 10 µM.
biological target: human GPR84 receptor (Homo sapiens); construct: host or cells: HEK293, transient transfection; test: Gαi biosensor BRET assay in HEK293 cells (antagonism of ZQ-16); assay type: cell-based; settings: HEK293, single concentration 10 μM (designated F)
Sequence (Q9NQS5 whole entry): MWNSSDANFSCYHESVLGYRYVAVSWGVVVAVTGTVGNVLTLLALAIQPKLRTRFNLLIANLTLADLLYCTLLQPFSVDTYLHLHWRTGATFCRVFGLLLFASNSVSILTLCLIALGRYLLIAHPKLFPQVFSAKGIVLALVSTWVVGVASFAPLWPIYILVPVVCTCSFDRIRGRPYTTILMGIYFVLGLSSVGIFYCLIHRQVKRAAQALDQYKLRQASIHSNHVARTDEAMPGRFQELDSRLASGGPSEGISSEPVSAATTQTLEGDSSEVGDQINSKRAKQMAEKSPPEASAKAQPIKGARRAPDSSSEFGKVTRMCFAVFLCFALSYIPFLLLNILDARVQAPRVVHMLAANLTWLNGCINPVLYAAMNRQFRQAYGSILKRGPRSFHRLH

Check out these entries, answers already filled in.
- CCc1cc(C#CCOC2CC2)ccc1-c1cn(CC2OCC(C)(C)CO2)nn1: > 75%
- Cc1cc(C#CC2CC(F)(F)C2)ccc1-c1cn(CC2CCCCO2)nn1 (stereo not shown): > 75%
- c1ccc(COc2ccc3c(c2)CCc2cnn(CC4CCCCO4)c2-3)cc1 (stereo not shown): ≤ 25%
- C[C@@H]1Cc2oc(C(=O)NC[C@@H]3COCCO3)c(C(F)(F)F)c2-c2nn(CC3CCN(C(=O)C4CC4)CC3)cc21: ≤ 25%
- Cc1ccc(C#CC2CC2)nc1-c1cn(CC2CCCCO2)nn1 (stereo not shown): ≤ 25%
- N#CCc1cc(C#CC2CC2)ccc1-c1cn(CC2CCCCO2)nn1 (stereo not shown): 25 to 50%
- Cc1cc(N2CC3(CN(Cc4ccccn4)C3)C2)ccc1-c1cn(CC2CCCCO2)nn1 (stereo not shown): 25 to 50%
- Cc1cc(N2CCC(O)CC2)ccc1-c1cn(CC2CCCCO2)nn1 (stereo not shown): 25 to 50%
- CN(C)c1cc(N2CC(CO)(CO)C2)ccc1-c1cn(CC2OCC(C)(C)CO2)nn1: > 75%
- CC(=O)N1CCCCC1Cn1cc(-c2ccc(C#CC3CC3)cc2C)nn1 (stereo not shown): ≤ 25%

Challenge: # value lookup — system human GPR84 receptor (Homo sapiens), readout inhibition at 10 µM, item Cc1cc(N2CC(CF)C2)ccc1-c1cn(CC2CCCCO2)nn1 (stereo not shown)
Response given: 25 to 50%

Challenge: # value lookup — system human GPR84 receptor (Homo sapiens), readout inhibition at 10 µM, item N#Cc1cc(C#CC2CC2)ccc1-c1cn(CC2CCCCO2)nn1 (stereo not shown)
Response given: 50 to 75%

Challenge: # value lookup — system human GPR84 receptor (Homo sapiens), readout inhibition at 10 µM, item Cc1cc(N2CC3(CN(Cc4ccccc4)C3)C2)ccc1-c1cn(CC2CCCCO2)nn1 (stereo not shown)
Response given: 25 to 50%

Challenge: # value lookup — system human GPR84 receptor (Homo sapiens), readout inhibition at 10 µM, item Cc1cc(C#CC2CC2)ccc1-c1nnc(CC2CCCCO2)o1 (stereo not shown)
Response given: ≤ 25%

Challenge: # value lookup — system human GPR84 receptor (Homo sapiens), readout inhibition at 10 µM, item CC1(C)COC(Cn2cc(-c3ncc(C#CC4CC4)cc3Cl)nn2)OC1
Response given: > 75%

Challenge: # value lookup — system human GPR84 receptor (Homo sapiens), readout inhibition at 10 µM, item Cc1cc(N2CC(C)(C)C2)cnc1-c1cn(CC2CCCCO2)nn1 (stereo not shown)
Response given: > 75%
